assay-protocol: yeast display, Sf9 membrane polyspecificity reagent, FACS + sequencing; frameworks hold sequencing errors
measure-name: polyreactivity (PSR sort gate)

[
  {
    "sequence-entry": "QVQLVESGGGLVQAGGSLRLSCAASGSTFRRNAMGWYRQAPGKERELVAAISRGGNTKYADSVKGGFTISRDNAKNTVYLQKNSLKPEDTAVYYCATYYFSSSHLYGYWGQGTQVTVSS",
    "result": "high polyreactivity"
  },
  {
    "sequence-entry": "QVQLVESGGGLVQAGGSLRLSCAASGFTFQFYAMGWSRPAPGKERELVAAITWSGGSTYYADSVKGRFTISRDNAKNTVYLQMNSLKPEDTAVYYCAKDRRSYLSYIYDYWGQGTQVNVSS",
    "result": "high polyreactivity"
  },
  {
    "sequence-entry": "QVQLVESGGGLVQAGGSLRLSCAASGSTFYPYAMGWYRQAPGKERELVAAISSGGSTSYADSVKGRFTISRDNAKNTVYLQMNSLKPEDTAVYYCNASSPGAVPVYDYDYWGQGTQVTVSS",
    "result": "low polyreactivity"
  },
  {
    "sequence-entry": "QVQLVESGGGLVQAGGSLRLSCAASGSIFTLNAMGWYRQAPGKERELVASISKNGGRTYYADSVKGRFTISRDNAKNTVYLQMNCLKPEDTAVYYCAARYYFTPSDGRRYDYWGQGTQVTVSS",
    "result": "high polyreactivity"
  },
  {
    "sequence-entry": "QGQLVESGGGLVQAGGSLRLSCAASGRTFYRYAMGWYRQAPGNERELVASMNRGGSTYYADSVKGRFTFSRDNAKNTVYLQMNSLKPEDTAVYYCACYCYCYRGQGTQVTVSS",
    "result": "low polyreactivity"
  }
]

Give its polyreactivity (PSR sort gate) value. Item: QVQLLESGVGLVQAGGILRLSCAASGITFSRYTMGWYRQAPGKERELVAANSSAGNTYYADSVNGRFTISRDNAKNTVYLQMNSLKPEDTAVYYCAREYTYYPRWVGYDAYGEDYWGQGTQVTVSS low polyreactivity
